Hey, just so you know, these numbers are from patent US4971990A.

Entries and their measured pKi follow.
- study.system: dopamine D2-receptor (Rattus norvegicus)
- Construct: The homogenates were centrifuged and synaptic membrane fractions were obtained; from tissue; host or cells: brain striatum, synaptic membrane fraction, male Wistar rat
- Sequence (P61169 whole entry): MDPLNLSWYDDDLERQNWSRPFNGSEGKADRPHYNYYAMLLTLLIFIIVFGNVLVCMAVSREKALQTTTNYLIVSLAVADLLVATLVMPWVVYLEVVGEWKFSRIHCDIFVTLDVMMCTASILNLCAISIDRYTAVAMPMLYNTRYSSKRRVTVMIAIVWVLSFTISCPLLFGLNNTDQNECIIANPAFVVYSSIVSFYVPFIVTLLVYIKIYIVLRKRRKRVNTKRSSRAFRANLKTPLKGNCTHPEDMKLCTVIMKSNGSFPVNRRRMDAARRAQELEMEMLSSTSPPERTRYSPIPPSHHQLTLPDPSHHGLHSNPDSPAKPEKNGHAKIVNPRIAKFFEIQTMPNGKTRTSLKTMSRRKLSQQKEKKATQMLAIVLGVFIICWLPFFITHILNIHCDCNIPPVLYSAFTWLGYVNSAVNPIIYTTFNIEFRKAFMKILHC
- procedure.text: Dopamine D2-receptor radioligand-binding assay (3H-spiperone, brain striatum membranes)
- Design: species or system rat (male Wistar)
- Description: Dopamine D2 -receptor radioligand-binding assay Method: These experiments were done according to the method of Coward, D et al. (Naunyn-Schmiedeberg's Archives of Pharmacology (1987)335, 115-122). […] The radioactivity on the filter was measured using a liquid scintillation counter. The test compounds' dissociation constants (Ki) were determined according to the following equation. […] Kd : ^3 H-spiperone dissociation constant calculated by Scatchard plot. […]
In textbook form, pKi equals minus log to base ten of the concentration in mol/L.

compound: CCOc1ccc(F)cc1OCCNC(C)Cc1ccc(OC)c(S(=O)(=O)N(C)C)c1.O=C(O)C(=O)O (stereo not shown) [Example 15, oxalate]
pKi: 7.59

compound: COc1ccc(F)cc1OCCN[C@H](C)Cc1ccc(OC)c(S(N)(=O)=O)c1.Cl [Example 34, hydrochloride]
pKi: 7.13

compound: COc1ccc(F)cc1OCCNC(C)Cc1ccc(OC)c(S(=O)(=O)N2CCCCC2)c1 (stereo not shown)
pKi: 7.05

From here, focus on the item given below.
State the recorded pKi for this entry: COc1ccc(F)cc1OCCNC(C)Cc1ccc(OC)c(S(=O)(=O)N2CCCC2)c1.O=C(O)C(=O)O (stereo not shown) [Example 11, oxalate] 7.19
